Catalogue of compounds with associated log10(IC50)
- Tested on: human ovarian cancer cell OVCAR-8
- protocol-description: MTS in vitro proliferation assay, OVCAR-8
- Format: cell-based
- run-parameters: 72 hours, average of three experiments
property-name: log10(IC50) (log10 of the value in µM)

structure-smiles	obs-value
CNc1nc(Nc2cnc(C#N)c(O[C@@H]3CCCNC3)c2)ncc1-c1cnn(C)c1	-0.10
CNc1nc(Nc2cnc(C#N)c(O[C@@H](C)CN(C)C)c2)ncc1-c1cnn(C)c1	0.34
COc1nc(Nc2cnc(C#N)c(OCC3CCNCC3)c2)ncc1-c1cccc(F)c1	-0.66
COc1nc(Nc2cnc(C#N)c(OCC3CCNCC3)c2)ncc1-c1cnn(C)c1	0.33
CNc1nc(Nc2cnc(C#N)c(O[C@H]3CCCNC3)c2)ncc1-c1cnn(C)c1	0.62
CNc1nc(Nc2cnc(C#N)c(O[C@H](C)CN(C)C)c2)ncc1-c1cnn(C)c1	0.08

---

- Test system: Human lung cancer cell A549
- protocol-description: MTS in vitro proliferation assay, A549
- Format: cell-based
- run-parameters: 72 hours, average of three experiments
So basically: is IC50 under 4 µM? Then satisfied. Not under? Then not satisfied.

compound	class-label
CNc1nc(Nc2cnc(C#N)c(O[C@@H](C)CN(C)C)c2)ncc1-c1cnn(C)c1	not satisfied
CNc1nc(Nc2cnc(C#N)c(O[C@H]3CCCNC3)c2)ncc1-c1cnn(C)c1	not satisfied
COc1nc(Nc2cnc(C#N)c(OCC3CCNCC3)c2)ncc1-c1cccc(F)c1	not satisfied
COc1nc(Nc2cnc(C#N)c(OCC3CCNCC3)c2)ncc1-c1cnn(C)c1	satisfied
CNc1nc(Nc2cnc(C#N)c(O[C@H](C)CN(C)C)c2)ncc1-c1cnn(C)c1	satisfied
CNc1nc(Nc2cnc(C#N)c(O[C@@H]3CCCNC3)c2)ncc1-c1cnn(C)c1	satisfied
CNc1nc(Nc2cnc(C#N)c(OC3CCCNC3)c2)ncc1-c1cnn(C)c1 (stereo not shown)	not satisfied

---

- assay-target: Chk1 protein kinase (Homo sapiens)
- Sequence (O14757 whole entry): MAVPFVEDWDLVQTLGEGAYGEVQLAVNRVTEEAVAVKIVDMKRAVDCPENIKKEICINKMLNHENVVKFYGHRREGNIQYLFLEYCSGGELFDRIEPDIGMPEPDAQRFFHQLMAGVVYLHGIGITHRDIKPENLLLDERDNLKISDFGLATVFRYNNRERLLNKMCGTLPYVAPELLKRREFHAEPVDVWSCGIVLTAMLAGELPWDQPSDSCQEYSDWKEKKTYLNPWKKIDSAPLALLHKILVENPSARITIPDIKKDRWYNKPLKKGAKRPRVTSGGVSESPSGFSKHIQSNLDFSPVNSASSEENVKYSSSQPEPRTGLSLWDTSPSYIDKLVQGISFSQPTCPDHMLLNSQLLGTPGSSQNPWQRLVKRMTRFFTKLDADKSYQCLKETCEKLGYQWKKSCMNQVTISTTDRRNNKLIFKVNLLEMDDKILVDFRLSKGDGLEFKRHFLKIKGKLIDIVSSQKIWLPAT
- protocol-description: Chk1 enzyme inhibitory activity, ADP-Glo kit
- Format: biochemical
- run-parameters: Table 2 left column pair, numeric cells, read-out: Chk1 (IC50)
pIC50: −log10 of the molar value.

compound	pIC50
COc1nc(Nc2cnc(C#N)c(OCC3CCNCC3)c2)ncc1-c1cccc(F)c1 [Compound 17]	8.06
COc1nc(Nc2cnc(C#N)c(OCC3CCNCC3)c2)ncc1-c1cnn(C)c1 [Compound 18]	8.74

---

- assay-target: Chk1 protein kinase (Homo sapiens)
- protocol-description: Chk1 enzyme inhibitory activity, ADP-Glo kit
- Format: biochemical
- run-parameters: Table 2 >10 μM or <1 μM, read-out: Chk1 IC50, bound with unit
pIC50: −log10 of the molar value.
Catalogue of molecules with associated pIC50
property-name: pIC50

molecule	obs-value
CNc1nc(Nc2cn(C)c(OC3CCNCC3)n2)ncc1-c1cnn(C)c1	< 5.00
N#Cc1ncc(Nc2ncc(C(F)(F)F)cn2)cc1OC1CCCNC1 (stereo not drawn)	> 6.00
CNc1nc(Nc2cc(OC3CCNCC3)no2)ncc1-c1cnn(C)c1	< 5.00
CNc1nc(NC2CN=C(OC3CCNCC3)O2)ncc1-c1cnn(C)c1 (stereo not drawn)	< 5.00
COc1nc(Nc2cnc(C#N)c(OCC3CCNCC3)c2)ncc1C(F)(F)F	> 6.00
CNc1nc(Nc2cnc(C#N)c(O[C@@H]3CCCNC3)c2)ncc1C(F)(F)F	> 6.00
CNc1nc(Nc2cc(OC3CCNCC3)n(C)n2)ncc1-c1cnn(C)c1	< 5.00
CNc1nc(Nc2cnc(OC3CCNCC3)s2)ncc1-c1cnn(C)c1	< 5.00
CNc1nc(Nc2cc(OC3CCNCC3)ns2)ncc1-c1cnn(C)c1	< 5.00

---

Catalogue of compounds with associated IC50
- Tested on: human mantle cell lymphoma cells Mino
- protocol-description: MTS in vitro proliferation assay, Mino
- Type: cell-based
- run-parameters: 72 hours

compound	assay-target	result-units	IC50
CNc1nc(Nc2cnc(C#N)c(O[C@H]3CCCNC3)c2)ncc1-c1cnn(C)c1	human mantle cell lymphoma cells Mino	µM	0.956
CNc1nc(Nc2cnc(C#N)c(OC3CCCNC3)c2)ncc1-c1cnn(C)c1 (stereo not drawn)	human mantle cell lymphoma cells Mino	µM	0.859
CNc1nc(Nc2cnc(C#N)c(O[C@@H](C)CN(C)C)c2)ncc1-c1cnn(C)c1	human mantle cell lymphoma cells Mino	µM	0.227
CNc1nc(Nc2cnc(C#N)c(O[C@H](C)CN(C)C)c2)ncc1-c1cnn(C)c1	human mantle cell lymphoma cells Mino	µM	0.473
CNc1nc(Nc2cnc(C#N)c(O[C@@H]3CCCNC3)c2)ncc1-c1cnn(C)c1	human mantle cell lymphoma cells Mino	µM	0.647
COc1nc(Nc2cnc(C#N)c(OCC3CCNCC3)c2)ncc1-c1cccc(F)c1	human mantle cell lymphoma cells Mino	µM	0.495

---

- System: human gastric cancer cell BGC-823
- protocol-description: MTS in vitro proliferation assay, BGC-823
- Assay type: cell-based
- run-parameters: 72 hours, average of three experiments
property-name: IC50 (µM)

molecule	assay-target	relation-qualifier	obs-value
CNc1nc(Nc2cnc(C#N)c(O[C@@H]3CCCNC3)c2)ncc1-c1cnn(C)c1 [Compound 35]	human gastric cancer cell BGC-823	=	4.81
CNc1nc(Nc2cnc(C#N)c(OC3CCCNC3)c2)ncc1-c1cnn(C)c1 (centres unmarked) [Compound 32]	human gastric cancer cell BGC-823	=	7.64
CNc1nc(Nc2cnc(C#N)c(O[C@H](C)CN(C)C)c2)ncc1-c1cnn(C)c1 [Compound 41]	human gastric cancer cell BGC-823	=	5.17
COc1nc(Nc2cnc(C#N)c(OCC3CCNCC3)c2)ncc1-c1cnn(C)c1 [Compound 18]	human gastric cancer cell BGC-823	=	7.11
COc1nc(Nc2cnc(C#N)c(OCC3CCNCC3)c2)ncc1-c1cccc(F)c1 [Compound 17]	human gastric cancer cell BGC-823	>	10

Where do these numbers come from? They come from patent US11591325B2.
